# Tested on: human acute monocytic leukemia cell line MV4-11
# protocol: MV4-11 MTT cell growth inhibition
# Format: cell-based
# condition-details: 144 h, MV4-11 cells, MTT on Day 6
pIC50: −log10 of the molar value.

compound: CON=C(C)C(=O)N1CC2(CC(Nc3cc(C(=O)NC[C@H](O)CN4CCc5ccccc5C4)ncn3)C2)C1 [PR-10]
study-target: human acute monocytic leukemia cell line MV4-11
pIC50: 9.18
--
compound: O=C(NC[C@H](O)CN1CCc2ccccc2C1)c1cc(NC2CCN(C(=O)C(=NO)C3CC3)CC2)ncn1 [PR-1]
study-target: human acute monocytic leukemia cell line MV4-11
pIC50: 8.30
--
compound: CON=C(C(=O)N1CC2(CC(Nc3cc(C(=O)NC[C@H](O)CN4CCc5ccccc5C4)ncn3)C2)C1)C1CC1 [PR-12]
study-target: human acute monocytic leukemia cell line MV4-11
pIC50: 9.16
--
compound: O=C(NC1CC2(C1)CC(Nc1cc(C(=O)NC[C@H](O)CN3CCc4ccccc4C3)ncn1)C2)C(=NO)C1CC1 (stereo partly drawn) [PR-6]
study-target: human acute monocytic leukemia cell line MV4-11
pIC50: 8.72
--
compound: CON=C(CC(C)C)C(=O)N1CCC(Nc2cc(C(=O)NC[C@H](O)CN3CCc4ccccc4C3)ncn2)CC1 [PR-5]
study-target: human acute monocytic leukemia cell line MV4-11
pIC50: 8.84
--
compound: CON=C(C(=O)NC1CC2(C1)CC(Nc1cc(C(=O)NC[C@H](O)CN3CCc4ccccc4C3)ncn1)C2)C1CC1 (stereo partly drawn) [PR-7]
study-target: human acute monocytic leukemia cell line MV4-11
pIC50: 8.98
--
compound: CON=C(C)C(=O)N1CCC(Nc2cc(C(=O)NC[C@H](O)CN3CCc4ccccc4C3)ncn2)CC1 [PR-4]
study-target: human acute monocytic leukemia cell line MV4-11
pIC50: 8.17
--
compound: CON=C(C)C(=O)N1CCC2(CC1)CC(Nc1cc(C(=O)NC[C@H](O)CN3CCc4ccccc4C3)ncn1)C2 [PR-13]
study-target: human acute monocytic leukemia cell line MV4-11
pIC50: 8.81
--
compound: CC(=NO)C(=O)NC1CC2(C1)CC(Nc1cc(C(=O)NC[C@H](O)CN3CCc4ccccc4C3)ncn1)C2 (stereo partly drawn) [PR-8]
study-target: human acute monocytic leukemia cell line MV4-11
pIC50: 9.01
--
compound: O=C(NC[C@H](O)CN1CCc2ccccc2C1)c1cc(NC2CC3(C2)CN(C(=O)C(=NO)C2CC2)C3)ncn1 [PR-11]
study-target: human acute monocytic leukemia cell line MV4-11
pIC50: 8.85
--
compound: CC(=NO)C(=O)N1CCC(Nc2cc(C(=O)NC[C@H](O)CN3CCc4ccccc4C3)ncn2)CC1 [PR-3]
study-target: human acute monocytic leukemia cell line MV4-11
pIC50: 8.91
--
compound: CON=C(C)C(=O)NC1CC2(C1)CC(Nc1cc(C(=O)NC[C@H](O)CN3CCc4ccccc4C3)ncn1)C2 (stereo partly drawn) [PR-9]
study-target: human acute monocytic leukemia cell line MV4-11
pIC50: 8.16

---

# Tested on: MV4-11 xenografts
# protocol: In vivo efficacy in MV4-11 subcutaneous xenograft model
# condition-details: relative tumor volume = d9/d0 tumor volume, 100 mg/kg BID
property: RTV (d9)

compound: CC(=O)N1CCC(Nc2cc(C(=O)NC[C@H](O)CN3CCc4ccccc4C3)ncn2)CC1 [GSK3326595, reference compound]
property: RTV (d9)
value-observed: 0.8

compound: CON=C(C)C(=O)N1CCC2(CC1)CC(Nc1cc(C(=O)NC[C@H](O)CN3CCc4ccccc4C3)ncn1)C2
property: RTV (d9)
value-observed: 0.4

compound: CON=C(C)C(=O)N1CC2(CC(Nc3cc(C(=O)NC[C@H](O)CN4CCc5ccccc5C4)ncn3)C2)C1
property: RTV (d9)
value-observed: 0.2

compound: CON=C(C)C(=O)N1CCC(Nc2cc(C(=O)NC[C@H](O)CN3CCc4ccccc4C3)ncn2)CC1
property: RTV (d9)
value-observed: 0.4

compound: CON=C(C(=O)NC1CC2(C1)CC(Nc1cc(C(=O)NC[C@H](O)CN3CCc4ccccc4C3)ncn1)C2)C1CC1 (some centres unmarked)
property: RTV (d9)
value-observed: 0.4
